Protocol notes: Acute oral toxicity (LD50), mortality recorded 2 weeks later
Condition notes: mouse, in vivo, Table III, Swiss mice
Measurement type: LD50 at 336 h (mg/kg)
// units = mg/kg; emit number, no label

Cc1sc2c(c1C(=O)c1cccs1)CCC2C(=O)O (stereo not drawn) :: 275
Cc1sc2c(c1C(=O)c1ccccc1)CCC2C(=O)O (stereo not drawn) :: 275

Turning to the following compound.
Measured LD50 at 336 h, COc1ccc2c(c1)c(CC(=O)O)c(C)n2C(=O)c1ccc(Cl)cc1 [INDOMETHACIN, reference compound] : 25
